Values were extracted from BigSolDB 2.1.

Settings: in isopropanol, 308.15 K
experimentalReadout: solubility (mole fraction)

* CC(=O)Oc1ccc(C(c2ccc(OC(C)=O)cc2)c2ccccn2)cc1 | 0.000777

----------
Settings: in ethanol, 288.15 K
experimentalReadout: solubility (mole fraction)

* CC(=O)Oc1ccc(C(c2ccc(OC(C)=O)cc2)c2ccccn2)cc1 | 0.000452

----------
Conditions: in isopropanol, 283.15 K
experimentalReadout: solubility (mole fraction)

* CC(=O)Oc1ccc(C(c2ccc(OC(C)=O)cc2)c2ccccn2)cc1 | 0.000162

----------
Details: in isopropanol, 298.15 K
experimentalReadout: solubility (mole fraction)

• CC(=O)Oc1ccc(C(c2ccc(OC(C)=O)cc2)c2ccccn2)cc1 = 0.000425
